The origin of these recorded values is ChEMBL document CHEMBL2321796.

System: K562
Test method notes: Cytotoxicity against human K562 cells at 50 ug/ml after 48 hrs by MTS assay relative to control
Type: functional
Property label: Activity (%)
Your answer is read as %, so omit the unit and give the number.

COc1cccc2ccc(C)nc12 : 27.15
N#Cc1ccc2cccc(O)c2n1 : 23.08
Cc1ccc2cccc(OCCN3CCCCC3)c2n1 : 27.43

Recorded Activity (compound Cc1ccc2cccc(O)c2n1 [8-HYDROXY QUINALDINE] ): 34.46

Recorded Activity (compound `CCOc1cccc2ccc(C)nc12` ): 21.38

Recorded Activity (compound `Oc1cccc2cccnc12` ): 26.66

Recorded Activity (compound `O=Cc1ccc2cccc(O)c2n1` ): 7
